# test.method.notes: Biodistribution in intestinal content of C57BL/6 mouse bearing mouse B16-F0 cells at 0.74 to 0.92 MBq, iv after 1 hr
# Format: ADME, organism-based
# measurement.parameters: in vivo
Measured Drug uptake of individual entries
Give the value; after it, write the unit.

Check out these entries, answers already filled in.
{"structure.smiles.string": "CCN(CC)CCNC(=O)c1nc2cc([125I])ccc2[nH]1.Cl.Cl", "Drug uptake": "105.55 % ID/g"}
{"structure.smiles.string": "CCN(CC)CCNC(=O)c1cc2c([125I])cccc2cn1.Cl.Cl", "Drug uptake": "42.97 % ID/g"}
{"structure.smiles.string": "CCN(CC)CCNC(=O)c1cnc2cc([125I])ccc2n1.Cl.Cl", "Drug uptake": "15.22 % ID/g"}
{"structure.smiles.string": "CCN(CC)CCNC(=O)c1cc2c([125I])cccc2s1.Cl", "Drug uptake": "71.13 % ID/g"}

Prompt: Quick one: Drug uptake of `CCN(CC)CCNC(=O)c1ccc2cncc([125I])c2n1.Cl.Cl` ?
Response: 32.83 % ID/g

Prompt: Quick one: Drug uptake of `CCN(CC)CCNC(=O)c1cn2cc([125I])ccc2n1.Cl.Cl` ?
Response: 9.48 % ID/g

* * *

# test.method.notes: Biodistribution in uvea of C57BL/6 mouse bearing mouse B16-F0 cells at 0.74 to 0.92 MBq, iv after 3 hrs
# Format: ADME, organism-based, Uveal tract
# measurement.parameters: in vivo
measurement.type: Drug uptake (% ID/g)
Only the number, expressed in % ID/g, is required.

{"structure.smiles.string": "CCN(CC)CCNC(=O)c1ccc2cc([125I])ccc2c1.Cl", "recorded.measurement": 13.9}

Prompt: Quick one: Drug uptake of `CCN(CC)CCNC(=O)c1cnc2cc([125I])ccc2n1.Cl.Cl` ?
Response: 24.79

Prompt: Quick one: Drug uptake of `CCN(CC)CCNC(=O)c1cc2cc([125I])ccc2[nH]1.Cl` ?
Response: 12.78

Prompt: Quick one: Drug uptake of `CCN(CC)CCNC(=O)c1ccc([125I])nc1.Cl.Cl` ?
Response: 12.69

Prompt: Quick one: Drug uptake of `CCN(CC)CCNC(=O)c1cc2c([125I])cccc2s1.Cl` ?
Response: 19.51

Prompt: Quick one: Drug uptake of `CCN(CC)CCNC(=O)c1nc2cc([125I])ccc2[nH]1.Cl.Cl` ?
Response: 24.4

* * *

# test.method.notes: Ratio of drug level in tumor to liver of C57BL/6 mouse bearing mouse B16-F0 cells at 0.74 to 0.92 MBq, iv after 24 hrs
# Format: ADME, organism-based
# measurement.parameters: in vivo
Measured Ratio of individual entries
The response must contain the number and no unit.

{"structure.smiles.string": "CCN(CC)CCNC(=O)c1ccc2cc([125I])ccc2n1.Cl.Cl", "Ratio": 5.39}
{"structure.smiles.string": "CCN(CC)CCNC(=O)c1cc2cc([125I])ccc2[nH]1.Cl", "Ratio": 5.07}
{"structure.smiles.string": "CCN(CC)CCNC(=O)c1cc2cc([125I])ccc2o1.Cl", "Ratio": 11.2}
{"structure.smiles.string": "CCN(CC)CCNC(=O)c1cnc2cc([125I])ccc2n1.Cl.Cl", "Ratio": 14.54}
{"structure.smiles.string": "CCN(CC)CCNC(=O)c1c[nH]c2ccc([125I])cc2c1=O.Cl.Cl", "Ratio": 39.14}

Prompt: Quick one: Ratio of `CCN(CC)CCNC(=O)c1cc2c([125I])cccc2cn1.Cl.Cl` ?
Response: 16.4

* * *

# test.method.notes: Partition coefficient, log P in phosphate buffer solution at pH 7.4
# Type: physicochemical
Measured logD of individual entries

Check out these entries, answers already filled in.
{"structure.smiles.string": "CCN(CC)CCNC(=O)c1cc2c([125I])cccc2s1.Cl", "measurement.type": "logD", "recorded.measurement": 1.54}
{"structure.smiles.string": "CCN(CC)CCNC(=O)c1ccc([125I])nc1.Cl.Cl", "measurement.type": "logD", "recorded.measurement": -0.29}
{"structure.smiles.string": "CCN(CC)CCNC(=O)c1ccc2cc([125I])ccc2n1.Cl.Cl", "measurement.type": "logD", "recorded.measurement": 1.87}
{"structure.smiles.string": "CCN(CC)CCNC(=O)c1cc2cc([125I])ccc2[nH]1.Cl", "measurement.type": "logD", "recorded.measurement": 1.69}
{"structure.smiles.string": "CCN(CC)CCNC(=O)c1c[nH]c2ccc([125I])cc2c1=O.Cl.Cl", "measurement.type": "logD", "recorded.measurement": 1.3}

Prompt: Quick one: logD of `CCN(CC)CCNC(=O)c1cc2c([125I])cccc2cn1.Cl.Cl` ?
Response: 1.65

Prompt: Quick one: logD of `CCN(CC)CCNC(=O)c1cn2cc([125I])ccc2n1.Cl.Cl` ?
Response: 0.71

Prompt: Quick one: logD of `CCN(CC)CCNC(=O)c1ccc2cncc([125I])c2n1.Cl.Cl` ?
Response: 0.51

Prompt: Quick one: logD of `CCN(CC)CCNC(=O)c1cnc2cc([125I])ccc2n1.Cl.Cl` ?
Response: 1.12

* * *

# Tested on: Muscle tissue
# test.method.notes: Biodistribution in muscle of C57BL/6 mouse bearing mouse B16-F0 cells at 0.74 to 0.92 MBq, iv after 3 hrs
# Type: ADME, organism-based
# measurement.parameters: in vivo
Assign class by Drug uptake: not lower than 0.5 % ID/g means Met; lower than 0.5 % ID/g means Not met.

Here's what some known entries look like.
{"structure.smiles.string": "CCN(CC)CCNC(=O)c1ccc2cncc([125I])c2n1.Cl.Cl", "group": "Not met"}
{"structure.smiles.string": "CCN(CC)CCNC(=O)c1cnc2cc([125I])ccc2n1.Cl.Cl", "group": "Met"}
{"structure.smiles.string": "CCN(CC)CCNC(=O)c1cn2cc([125I])ccc2n1.Cl.Cl", "group": "Not met"}
{"structure.smiles.string": "CCN(CC)CCNC(=O)c1c[nH]c2ccc([125I])cc2c1=O.Cl.Cl", "group": "Not met"}
{"structure.smiles.string": "CCN(CC)CCNC(=O)c1cc2cc([125I])ccc2o1.Cl", "group": "Not met"}

Prompt: Quick check: does `CCN(CC)CCNC(=O)c1ccc2cc([125I])ccc2n1.Cl.Cl` have Drug uptake greater than or equal to 0.5 % ID/g?
Response: Met

Prompt: Quick check: does `CCN(CC)CCNC(=O)c1ccc2cc([125I])ccc2c1.Cl` have Drug uptake greater than or equal to 0.5 % ID/g?
Response: Met

Prompt: Quick check: does `CCN(CC)CCNC(=O)c1cc2c([125I])cccc2cn1.Cl.Cl` have Drug uptake greater than or equal to 0.5 % ID/g?
Response: Not met

* * *

# test.method.notes: Biodistribution in tumor of C57BL/6 mouse bearing mouse B16-F0 cells at 0.74 to 0.92 MBq, iv after 1 hr
# Type: ADME, organism-based, Neoplasm
# measurement.parameters: in vivo
Assign class by Drug uptake: not lower than 10 % ID/g means 1; lower than 10 % ID/g means 0.

{"structure.smiles.string": "CCN(CC)CCNC(=O)c1cc2c([125I])cccc2cn1.Cl.Cl", "group": 0}
{"structure.smiles.string": "CCN(CC)CCNC(=O)c1ccc2cc([125I])ccc2n1.Cl.Cl", "group": 1}

Prompt: Quick check: does `CCN(CC)CCNC(=O)c1cc2cc([125I])ccc2[nH]1.Cl` have Drug uptake greater than or equal to 10 % ID/g?
Response: 0

Prompt: Quick check: does `CCN(CC)CCNC(=O)c1cnc2cc([125I])ccc2n1.Cl.Cl` have Drug uptake greater than or equal to 10 % ID/g?
Response: 1

Prompt: Quick check: does `CCN(CC)CCNC(=O)c1ccc2cc([125I])ccc2c1.Cl` have Drug uptake greater than or equal to 10 % ID/g?
Response: 1

Prompt: Quick check: does `CCN(CC)CCNC(=O)c1ccc2cncc([125I])c2n1.Cl.Cl` have Drug uptake greater than or equal to 10 % ID/g?
Response: 1

Prompt: Quick check: does `CCN(CC)CCNC(=O)c1ccc([125I])nc1.Cl.Cl` have Drug uptake greater than or equal to 10 % ID/g?
Response: 1

Prompt: Quick check: does `CCN(CC)CCNC(=O)c1cc2c([125I])cccc2s1.Cl` have Drug uptake greater than or equal to 10 % ID/g?
Response: 1

Prompt: Quick check: does `CCN(CC)CCNC(=O)c1cn2cc([125I])ccc2n1.Cl.Cl` have Drug uptake greater than or equal to 10 % ID/g?
Response: 0

Prompt: Quick check: does `CCN(CC)CCNC(=O)c1c[nH]c2ccc([125I])cc2c1=O.Cl.Cl` have Drug uptake greater than or equal to 10 % ID/g?
Response: 0

Prompt: Quick check: does `CCN(CC)CCNC(=O)c1nc2cc([125I])ccc2[nH]1.Cl.Cl` have Drug uptake greater than or equal to 10 % ID/g?
Response: 1

Prompt: Quick check: does `CCN(CC)CCNC(=O)c1cc2cc([125I])ccc2o1.Cl` have Drug uptake greater than or equal to 10 % ID/g?
Response: 0
